Reference for the values: patent US8759338B2

- measured_target: PIM1 (Homo sapiens (Human))
- Sequence (P11309 whole entry, species assumed): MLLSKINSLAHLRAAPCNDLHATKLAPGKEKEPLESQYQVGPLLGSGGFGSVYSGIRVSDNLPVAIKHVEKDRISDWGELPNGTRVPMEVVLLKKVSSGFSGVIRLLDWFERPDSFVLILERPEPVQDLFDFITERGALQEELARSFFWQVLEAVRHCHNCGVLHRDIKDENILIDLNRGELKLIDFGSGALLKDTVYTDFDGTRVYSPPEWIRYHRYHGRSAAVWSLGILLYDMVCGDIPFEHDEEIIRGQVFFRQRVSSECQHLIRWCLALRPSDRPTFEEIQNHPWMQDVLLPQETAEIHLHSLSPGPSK
- experimental_details: Pim1 ATP depletion assay
- Format: biochemical
- settings: 20 μM ATP, 40 μM BAD peptide
Listing of recorded IC50 by entry.
quantity_measured: IC50 (µM)

[[record]]
molecule = "NC1CCCCN(c2ccncc2Nc2cccc3cnc(-c4c(F)cccc4F)nc23)C1 (stereo not shown) [Example 11]"
numeric_result = 2.9

[[record]]
molecule = "CCO[C@@H]1C[C@H](N)CN(c2ccncc2Nc2cccc3cnc(-c4c(F)cccc4F)nc23)C1 [Example 6]"
numeric_result = 1.7

[[record]]
molecule = "N[C@H]1CCCN(c2ncncc2Nc2cccc3cnc(-c4c(F)cccc4F)nc23)C1 [Example 12]"
numeric_result = 5.4

[[record]]
molecule = "N[C@@H]1CCCN(c2ccncc2Nc2cccc3cnc(-c4c(F)cccc4F)nc23)C1 [Example 7]"
numeric_result = 2.1


====

- measured_target: PIM3 (Homo sapiens (Human))
- experimental_details: Pim3 ATP depletion assay
- Assay type: biochemical
- settings: 40 μM ATP, 100 μM BAD peptide
hey, just use Criterion met if measured IC50 is less than 0.1 µM, otherwise Criterion not met

[[record]]
molecule = "NC1C=C(c2ccncc2Nc2cccc3cnc(-c4c(F)cccc4F)nc23)CCC1 (centres unmarked) [Example 1]"
measured_target = "PIM3 (Homo sapiens (Human))"
assigned_class = "Criterion met"

[[record]]
molecule = "N[C@@H]1CN(c2ccncc2Nc2cccc3cnc(-c4c(F)cccc4F)nc23)CC[C@H]1F [Example 9]"
measured_target = "PIM3 (Homo sapiens (Human))"
assigned_class = "Criterion not met"

[[record]]
molecule = "N[C@H]1CCCN(c2ccncc2Nc2cccc3cnc(-c4c(F)cccc4F)nc23)C1 [Example 17]"
measured_target = "PIM3 (Homo sapiens (Human))"
assigned_class = "Criterion met"

[[record]]
molecule = "C[C@H]1C[C@@H](N)CN(c2ccncc2Nc2cccc3cnc(-c4c(F)cccc4F)nc23)C1 [Example 14]"
measured_target = "PIM3 (Homo sapiens (Human))"
assigned_class = "Criterion not met"

[[record]]
molecule = "N[C@H]1CCCN(c2ncncc2Nc2cccc3cnc(-c4c(F)cccc4F)nc23)C1 [Example 12]"
measured_target = "PIM3 (Homo sapiens (Human))"
assigned_class = "Criterion not met"

[[record]]
molecule = "N[C@H]1CN(c2ccncc2Nc2cccc3cnc(-c4c(F)cccc4F)nc23)CC[C@@H]1F [Example 10]"
measured_target = "PIM3 (Homo sapiens (Human))"
assigned_class = "Criterion not met"

[[record]]
molecule = "N[C@@H]1CCCN(c2ccncc2Nc2cccc3cnc(-c4c(F)cccc4F)nc23)C1 [Example 7]"
measured_target = "PIM3 (Homo sapiens (Human))"
assigned_class = "Criterion not met"

[[record]]
molecule = "N[C@H]1CCCN(c2ccncc2Nc2cccc3cnc(-c4nccs4)nc23)C1 [Example 16]"
measured_target = "PIM3 (Homo sapiens (Human))"
assigned_class = "Criterion not met"

[[record]]
molecule = "NC1CCCCN(c2ccncc2Nc2cccc3cnc(-c4c(F)cccc4F)nc23)C1 (centres unmarked) [Example 11]"
measured_target = "PIM3 (Homo sapiens (Human))"
assigned_class = "Criterion not met"

[[record]]
molecule = "N[C@H]1CCCN(c2ccncc2Nc2cccc3cnc(-c4ccccc4F)nc23)C1 [Example 18]"
measured_target = "PIM3 (Homo sapiens (Human))"
assigned_class = "Criterion met"

[[record]]
molecule = "N[C@@H]1CN(c2ccncc2Nc2cccc3cnc(-c4c(F)cccc4F)nc23)CC[C@@H]1O [Example 2]"
measured_target = "PIM3 (Homo sapiens (Human))"
assigned_class = "Criterion met"

[[record]]
molecule = "N[C@H]1C[C@@H](CF)CN(c2ccncc2Nc2cccc3cnc(-c4c(F)cccc4F)nc23)C1 [Example 13]"
measured_target = "PIM3 (Homo sapiens (Human))"
assigned_class = "Criterion met"

[[record]]
molecule = "C[C@@H]1C[C@H](N)CN(c2ccncc2Nc2cccc3cnc(-c4c(F)cccc4F)nc23)C1 [Example 15]"
measured_target = "PIM3 (Homo sapiens (Human))"
assigned_class = "Criterion met"

[[record]]
molecule = "CCO[C@@H]1C[C@H](N)CN(c2ccncc2Nc2cccc3cnc(-c4c(F)cccc4F)nc23)C1 [Example 6]"
measured_target = "PIM3 (Homo sapiens (Human))"
assigned_class = "Criterion not met"

[[record]]
molecule = "NC1CC(N)CN(c2ccncc2Nc2cccc3cnc(-c4c(F)cccc4F)nc23)C1 (centres unmarked) [Example 8]"
measured_target = "PIM3 (Homo sapiens (Human))"
assigned_class = "Criterion not met"

[[record]]
molecule = "N[C@H]1CCCN(c2ccncc2Nc2cccc3cnc(-c4cccc(-c5nccs5)c4)nc23)C1 [Example 19]"
measured_target = "PIM3 (Homo sapiens (Human))"
assigned_class = "Criterion met"

[[record]]
molecule = "N[C@@H]1CN(c2ccncc2Nc2cccc3cnc(-c4c(F)cccc4F)nc23)CC[C@H]1O [Example 3]"
measured_target = "PIM3 (Homo sapiens (Human))"
assigned_class = "Criterion met"

